Reference source: patent US8518965B2

# assay info: Solubility in solvents and buffers
# Type: physicochemical
# details: AcOH-H2O (1-1), 25 °C, aqueous with cosolvent or surfactant or cyclodextrin, AcOH—H2O (1-1); read-out: Solubility (mg/ml), 25° C.
observed property: solubility

# solubility (molecule: c1ccc2c(Nc3ccc(Oc4ccc(Nc5c6ccccc6nc6ccccc56)cc4)cc3)c3ccccc3nc2c1 [Compound D11B] ) is > 1.1 mg/mL

====

# assay info: Solubility in solvents and buffers
# Type: physicochemical
# details: PEG-400, 25 °C, organic solvent or mixture, D11Bx2AH salts, PEG-400; samples were dissolved at 100° C.; read-out: Solubility (mg/ml), 25° C.
observed property: solubility
Write the quantity with the unit trailing the number.

# solubility (compound: c1ccc2c(Nc3ccc(Oc4ccc(Nc5c6ccccc6nc6ccccc56)cc4)cc3)c3ccccc3nc2c1 [D11Bx2AH 6, D11B digallate] ) is 20 mg/mL

====

# assay info: Solubility in solvents and buffers
# Format: physicochemical
# details: AcOH, 25 °C, organic solvent or mixture, AcOH; read-out: Solubility (mg/ml), 25° C.
observed property: solubility

# solubility (molecule: c1ccc2c(Nc3ccc(Oc4ccc(Nc5c6ccccc6nc6ccccc56)cc4)cc3)c3ccccc3nc2c1 [Compound D11B] ) is ~0.01 mg/mL

====

# assay info: Solubility in solvents and buffers
# Type: physicochemical
# details: Na2HPO4-citric acid buffer, 25 °C, pH 4, aqueous buffer, Na2HPO4-citric acid buffer (pH = 4), first entry; read-out: Solubility (mg/ml), 25° C.
observed property: solubility

# solubility (molecule: c1ccc2c(Nc3ccc(Oc4ccc(Nc5c6ccccc6nc6ccccc56)cc4)cc3)c3ccccc3nc2c1 [Compound D11B] ) is < 0.1 mg/mL

====

# assay info: Solubility in solvents and buffers
# Assay type: physicochemical
# details: Na2HPO4-citric acid buffer, 25 °C, pH 4, aqueous buffer, Na2HPO4-citric acid buffer (pH = 4), second entry; read-out: Solubility (mg/ml), 25° C.
observed property: solubility

# solubility (compound: c1ccc2c(Nc3ccc(Oc4ccc(Nc5c6ccccc6nc6ccccc56)cc4)cc3)c3ccccc3nc2c1 [Compound D11B] ) is < 0.1 mg/mL

====

# assay info: Solubility in solvents and buffers
# Type: physicochemical
# details: buffer, 25 °C, pH 6, aqueous buffer, D11Bx2AH salts, Buffer (pH = 6); even at 100° C.; read-out: Solubility (mg/ml), 25° C.
observed property: solubility

# solubility (molecule: c1ccc2c(Nc3ccc(Oc4ccc(Nc5c6ccccc6nc6ccccc56)cc4)cc3)c3ccccc3nc2c1 [D11Bx2AH 1, D11B digluconate] ) is > 0.5 mg/mL

====

# assay info: Solubility in solvents and buffers
# Assay type: physicochemical
# details: buffer, 25 °C, pH 4, aqueous buffer, D11Bx2AH salts, Buffer (pH = 4); even at 100° C.; read-out: Solubility (mg/ml), 25° C.
observed property: solubility

# solubility (compound: c1ccc2c(Nc3ccc(Oc4ccc(Nc5c6ccccc6nc6ccccc56)cc4)cc3)c3ccccc3nc2c1 [D11Bx2AH 1, D11B digluconate] ) is > 0.5 mg/mL

====

# assay info: Solubility in solvents and buffers
# Assay type: physicochemical
# details: AcOH-H2O (9-1), 25 °C, organic solvent or mixture, AcOH—H2O (9-1); read-out: Solubility (mg/ml), 25° C.
observed property: solubility

# solubility (compound: c1ccc2c(Nc3ccc(Oc4ccc(Nc5c6ccccc6nc6ccccc56)cc4)cc3)c3ccccc3nc2c1 [Compound D11B] ) is > 13 mg/mL
